- System: HOP-92
- test_description: NCI tumour cell line growth inhibition, 48 h
Activity calls are given as the source filed them. Cut-off read from the data, not from the text of the source: active = GI50 up to about 1.1 µM and inactive = higher.
observed_property: GI50

• Cc1nc(N)sc1C(=O)/C=C\c1ccc2c(c1)OCO2 = > 100 µM (inactive)

Please look at the following compound next.
Task item: Which measured GI50 value corresponds to O=C1C(Cl)=C(N[C@@H](Cc2ccccc2)C(=O)OCc2ccccc2)C(=O)c2c(O)ccc(O)c21 ?
Reply: 6.3 µM (inactive)

* * *

- Test system: NCI-H460
- test_description: NCI tumour cell line growth inhibition, 48 h
Active and inactive are the calls of the source. Rule as the data show it: active = GI50 up to about 1.1 µM and inactive = higher.
Hi! Could you answer with just one of these? t for active, f for inactive

Please review the following examples before continuing.
* CNCCN[C@@H]1c2cc3c(cc2[C@@H](c2cc(OC)c(O)c(OC)c2)[C@H]2C(=O)OC[C@@H]21)OCO3 | t
* COc1ccc(C(CC(C)=O)c2c(O)c3ccccc3oc2=O)cc1OC (stereo not given) | f
* O=C(O)c1[nH]c(=O)[nH]c(=O)c1CN1CCCCC1 | f
* Cc1cn([C@H]2C[C@](C)(CO)N(C)O2)c(=O)[nH]c1=O | f
* O=C(NNS(=O)(=O)c1ccc(Br)cc1)c1ccc(Cl)cc1NC(=O)C12CC3CC(CC(C3)C1)C2 | f

Task item: Per the assay record, what outcome was assigned to O=C(O)Cc1cc(=O)[nH]c2c1/C(=N/O)CCC2 ?
Reply: f

Task item: Recorded call for COc1cc2c(cc1O)[C@@]1(Cc3ccc(OC)c(OC)c3)CCC(=O)N1CC2 ?
Reply: f

Task item: Dear all, I need the recorded test outcome for CC(C)c1cccc(=O)c(O)c1 , thank you.
Reply: f

Task item: Any idea what this test logged for COc1cc([C@@H]2c3cc4c(cc3C(N)C3COC(=O)[C@@H]32)OCO4)cc(OC)c1O (stereo not given in full) ?
Reply: t

* * *

As shown below, each of these compounds has a reported GI50 value.
- System: TK-10
- test_description: NCI tumour cell line growth inhibition, 48 h
The source made the active and inactive calls. Rule as the data show it: active = GI50 up to about 1.1 µM and inactive = higher.

Recorded GI50, per entry:
- O=C(NCc1cccnc1)NCc1cccnc1: > 100 µM (inactive)
- CC(=O)c1c(SCCN2CCCCCC2)n(-c2ccccc2)c(=S)n(-c2ccccc2)c1=O: 2.07 µM (inactive)
- Cc1cc(NS(=O)(=O)c2ccc(NC(=O)c3cccc4c(Nc5ccc(S(=O)(=O)Nc6cc(C)on6)cc5)c5ccc(Cl)cc5nc34)cc2)no1: > 100 µM (inactive)
- N[C@@H](Cc1ccccc1)C(=O)N1CCC[C@@H]1P(=O)(Oc1ccccc1)Oc1ccccc1: > 100 µM (inactive)

Next:
Task item: What value of measured GI50 is listed for CC1(C)CCN2C(=O)C34CCCC3CC21S4 (stereo not given) ?
Reply: > 100 µM (inactive)

* * *

- Tested on: SK-MEL-5
- test_description: NCI tumour cell line growth inhibition, 48 h
Active and inactive are the calls of the source. No stated cut-off is given here; in the data, active = GI50 up to about 1.1 µM and inactive = higher.
Please state which outcome applies, choosing from True for active, False for inactive

Worked examples, 8 compounds total:
* COc1cc2c[n+](C)c3c4cc(OC)c(OC)cc4c(OCCCCCCCCOc4cc5c6cc(OC)c(OC)cc6c[n+](C)c5c5cc(OC)c(OC)cc45)cc3c2cc1OC | False
* O=C1c2ccccc2C(=O)N1CCCOCc1cnc(O)nc1O | False
* COc1cc([C@@H]2c3cc4c(cc3C(N)C3COC(=O)[C@@H]32)OCO4)cc(OC)c1O (stereo partly specified) | True
* Cc1cc(C)nc(NS(=O)(=O)c2ccc(NC(=O)c3cccc4c(=O)c5ccccc5[nH]c34)cc2)n1 | False
* O=C1C=C(C2=CC(=O)C(=O)c3ccccc32)c2ccccc2C1=O | False
* Cc1ccc(CC2(OCCN(C)C)CCC(C(C)(C)C)CC2)cc1 (stereo unspecified) | False
* NC1=NCCC1(c1ccccc1)c1ccccn1 (stereo unspecified) | False
* CCOC(=O)C(=[N+]=[N-])C(=O)CN1C(=O)C2CC(C)=C(C)CC2C1O (stereo unspecified) | False

Task item: # outcome recorded in this test, key = CCCCCCCCCCNC(=S)OC
Reply: False

Task item: Hi team, can someone confirm the assay call for CN(CCCCN)c1ccc2c(=O)[nH][nH]c(=O)c2c1 ?
Reply: False

Task item: // param item: O=c1c(Br)cc2nc3ccccc3sc-2c1Br ; yields the recorded call
Reply: False

* * *

- System: SF-268
- test_description: NCI tumour cell line growth inhibition, 48 h
Calls of active or inactive are those of the source. Cut-off read from the data, not from the text of the source: active = GI50 up to about 1.1 µM and inactive = higher.
Response enum: t (active), f (inactive)

- O=C1C(=Cc2ccc([N+](=O)[O-])o2)C(=O)N(CCc2ccccc2)S(=O)(=O)N1CCc1ccccc1: f

Task item: Record lookup: outcome of this test for CCC(C#N)NC(=O)NC(C#N)CC (stereo not given) ?
Reply: f

Task item: Dear colleague, could you share the recorded outcome for O=C1CSC2(CC(/C=C/c3cccs3)=NN2c2cccc(S(=O)(=O)O)c2)N1c1nc2ccccc2s1 (stereo not given) when you have a moment?
Reply: f

Task item: Any idea what this test logged for S=C(Nc1ccccc1)N(Cc1ccccc1)c1ccccc1 ?
Reply: f

* * *

- Tested on: SF-268
- test_description: NCI tumour cell line growth inhibition, 48 h
Calls of active or inactive are those of the source. No stated cut-off is given here; in the data, active = GI50 up to about 1.1 µM and inactive = higher.
Outcome field: choose from yes (1) for active, no (0) for inactive

Observe how each entry below is paired with its result.
- FC(F)(F)c1nc2nc(Cl)c(Cl)nc2n1CCCN1CCOCC1: no (0)
- COc1ccc(/C(C)=N/NC(=S)N(C)C)c(O)c1: no (0)
- O=C(Cn1ccnc1[N+](=O)[O-])NCCO [ETANIDAZOLE]: no (0)
- CO/N=C\c1cc(O)c(O)c(/C=N/OC)c1: no (0)
- C=C[C@@]1(O)CCCC2=C(C(=O)OCC)CC[C@]21C: no (0)

Task item: Name the outcome recorded for Cn1c(/C=C/CO)c(CO)c2c1C(=O)C=C(N1CC1)C2=O [APAZIQUONE] in the assay.
Reply: yes (1)

Task item: For Cc1cn(CC2=NCCCN2)c(=O)[nH]c1=O , what call appears in the results of this test?
Reply: no (0)

* * *

- Test system: BT-549
- test_description: NCI tumour cell line growth inhibition, 48 h
The source made the active and inactive calls. Rule as the data show it: active = GI50 up to about 1.1 µM and inactive = higher.
Just give me one of these, please: yes for active, no for inactive

Illustrative cases are given below, each with its answer.
• CN(C)c1ccc(C(N)=O)cn1 = no
• C=C1CCC([N+](=O)[O-])[C@](C)(N=O)CC[C@@H]2C1CC2(C)C (some centres undefined) = no

Task item: # fetch the recorded call for C=CCCC(CCC=C)(C(=O)O)C(=O)O here
Reply: no

Task item: State the result this test recorded for NNC(=O)c1ccc(-n2nnc(C(=O)NN)c2C(=O)NN)cc1 .
Reply: no

Task item: Name the outcome recorded for CCOP(=O)(OCC)/C(C#N)=C/c1ccc(-c2cc(C(F)(F)F)cc(C(F)(F)F)c2)o1 in the assay.
Reply: no

Task item: // param item: Cc1c(C)n(-c2ccccc2)c2nc([S+](C)[O-])nc([S+](C)[O-])c12 (centres undefined) ; yields the recorded call
Reply: yes

Task item: What classification did CCOc1ccc2nc(NC(=O)C(=O)C(C(=O)c3ccccc3-c3ccccc3)C3OC(=O)c4ccccc43)sc2c1 (centres undefined) end up with in this test?
Reply: no

Task item: Record lookup: outcome of this test for COc1ccc(C2c3cc4c(cc3OC(N3CCOCC3)C2C)OCO4)cc1 (centres undefined) ?
Reply: no

Task item: Short answer needed: outcome of this test for O=[N+]([O-])c1ccc(C(c2c[nH]c3ccccc23)c2c[nH]c3ccccc23)cc1 ?
Reply: no

* * *

- System: RXF 631
- test_description: NCI tumour cell line growth inhibition, 48 h
Calls of active or inactive are those of the source. Rule as the data show it: active = GI50 up to about 1.1 µM and inactive = higher.
observed_property: GI50

- COC(=O)C1=CC(=O)C(C(=O)Nc2ccc(OC)cc2)C(c2ccccc2)O1 (centres undefined): 37.2 µM (inactive)

Task item: Short answer please: GI50, RXF 631, entry CC(=O)c1cc([N+](=O)[O-])ccc1OCC(=O)O
Reply: > 100 µM (inactive)

Task item: Observed GI50 on RXF 631 for CC1CCN(CCC(=O)CC(c2ccccc2)c2c(O)c3ccccc3oc2=O)CC1 (centres undefined) , please.
Reply: > 100 µM (inactive)

Task item: Under RXF 631: GI50 value of CCOC(=O)c1cnc2c(ccc3ncccc32)c1OCC ?
Reply: 84.5 µM (inactive)

Task item: Give the reported GI50 for Cc1cc(C)nc(NS(=O)(=O)c2ccc(NC(=O)c3cccc4c(=O)c5ccccc5[nH]c34)cc2)n1 (system: RXF 631).
Reply: 60 µM (inactive)

Task item: // lookup GI50 | system=RXF 631 | key= CCOC(=O)c1ccc(/N=N\c2ccc(N(CCC#N)CCC#N)cc2C)cc1
Reply: > 100 µM (inactive)

Task item: Can you look up GI50 on RXF 631 for O=C1CCCN(c2ccccc2)N1 ?
Reply: > 100 µM (inactive)

Task item: Please state recorded GI50 (tested on RXF 631) of CC(C)c1cccc(=O)c(O)c1
Reply: 30.5 µM (inactive)

Task item: Notebook entry, RXF 631 assay: GI50 of CCC(O)CCCCCCCCCCCCCCC(=O)O (centres undefined) = ?
Reply: 78.3 µM (inactive)
